Task for the reader: assign each of the following compounds its reported pIC50.
Target: FGFR2 V564F (Homo sapiens, UniProt P21802, V564F)
Construct: biochemical assays using purified intracellular domains of the respective isoforms
Sequence (P21802 399-821 V564F limits assumed): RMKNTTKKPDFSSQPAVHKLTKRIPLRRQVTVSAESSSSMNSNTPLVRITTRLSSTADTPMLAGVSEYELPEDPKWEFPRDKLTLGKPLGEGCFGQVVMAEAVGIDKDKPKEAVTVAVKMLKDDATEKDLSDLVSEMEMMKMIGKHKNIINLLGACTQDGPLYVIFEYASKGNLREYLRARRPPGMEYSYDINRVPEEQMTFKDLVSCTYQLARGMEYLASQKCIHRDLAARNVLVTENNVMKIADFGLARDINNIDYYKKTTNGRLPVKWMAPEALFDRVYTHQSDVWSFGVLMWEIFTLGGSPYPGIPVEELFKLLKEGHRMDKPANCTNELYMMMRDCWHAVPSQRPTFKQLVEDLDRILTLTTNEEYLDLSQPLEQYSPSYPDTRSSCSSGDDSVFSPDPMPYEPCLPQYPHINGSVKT
Test: FGFR mutant enzyme assay (HTRF KinEASE-TK)
Details: ATP 1.5 uM
One number for each entry, as −log10 of the molar value.

compound	study-system	observed-measurement
Cc1c(-c2cc(O[C@H](C)c3ccc(F)cn3)c3c(C#N)cnn3c2)cnn1[C@H]1CCCN(C(=O)C(C)(C)O)C1	FGFR2 V564F (Homo sapiens, UniProt P21802, V564F)	9.00
Cc1c(-c2cc(O[C@H](C)c3ccc(F)cn3)c3c(C#N)cnn3c2)cnn1[C@H]1CCCN(C[C@H](O)CO)C1	FGFR2 V564F (Homo sapiens, UniProt P21802, V564F)	9.00
C[C@@H](Oc1cc(-c2cnn([C@H]3CCCNC3)c2N)cn2ncc(C#N)c12)c1ccc(F)cn1	FGFR2 V564F (Homo sapiens, UniProt P21802, V564F)	8.85
Cc1c(-c2cc(O[C@H](C)c3ccc(F)cn3)c3c(C#N)cnn3c2)cnn1[C@H]1CCCN(C(=O)[C@H](C)O)C1	FGFR2 V564F (Homo sapiens, UniProt P21802, V564F)	9.00
Cc1c(-c2cc(O[C@H](C)c3ccc(Cl)cn3)c3c(C#N)cnn3c2)cnn1[C@H]1CCCNC1	FGFR2 V564F (Homo sapiens, UniProt P21802, V564F)	7.82

Dear colleague, could you send me pIC50 for each of the items below? Thanks.
1. Cc1c(-c2cc(OC(C)c3ccc(F)cn3)c3c(C#N)cnn3c2)cnn1[C@H]1CC[C@H](O)CC1 (stereo partly drawn)
2. Cc1c(-c2cc(O[C@H](C)c3ccc(F)cn3)c3c(C#N)cnn3c2)cnn1[C@H]1CC[C@](C)(O)CC1
3. Cc1c(-c2cc(O[C@H](C)c3ccc(F)cn3)c3c(C#N)cnn3c2)cnn1[C@H]1CCC[C@@H](O)C1
4. Cc1c(-c2cc(O[C@H](C)c3ccc(F)cn3)c3c(C#N)cnn3c2)cnn1C1CCN(C(=O)[C@H](C)O)CC1

8.70
9.00
8.70
8.70

* * *

Target: FGFR2-WT (Homo sapiens, UniProt P21802)
Sequence (P21802 430-767 limits assumed): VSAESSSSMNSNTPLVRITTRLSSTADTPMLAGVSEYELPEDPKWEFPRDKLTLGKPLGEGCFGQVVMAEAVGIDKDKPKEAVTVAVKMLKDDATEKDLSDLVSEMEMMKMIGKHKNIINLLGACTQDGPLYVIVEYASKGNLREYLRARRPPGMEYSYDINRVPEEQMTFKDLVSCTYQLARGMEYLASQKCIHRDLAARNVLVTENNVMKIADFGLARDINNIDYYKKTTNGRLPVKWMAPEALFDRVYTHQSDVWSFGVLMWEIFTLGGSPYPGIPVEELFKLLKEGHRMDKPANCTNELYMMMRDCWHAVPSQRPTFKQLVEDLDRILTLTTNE
Assay: Phosphorylated FGFR2-WT (pFGFR2-WT) cell assay, KATOIII cells
Settings: 1 hour incubation, phospho FGFR2 HTRF
property-measured: IC50 (nM)
Answers are plain numbers, in nM.

Example compounds with recorded IC50:
compound	IC50 [nM]
Cc1c(-c2cc(O[C@H](C)c3ccc(F)cn3)c3c(C#N)cnn3c2)cnn1C[C@H](O)CO [Compound 27]	23
CC(=O)N1CCC[C@H](n2ncc(-c3cc(O[C@H](C)c4ccc(F)cn4)c4c(C#N)cnn4c3)c2C)C1 [Compound 13]	3.8
Cc1c(-c2cc(O[C@H](C)c3ccc(F)cn3)c3c(C#N)cnn3c2)cnn1C1CCN(C(=O)C2(N)CCC2)CC1 [Compound 43]	9
C[C@@H](Oc1cc(-c2cnn(C3CCNCC3)c2)cn2ncc(C#N)c12)c1ccccn1 [Compound 2]	2.5
Cc1c(-c2cc(O[C@H](C)c3ccc(F)cn3)c3c(C#N)cnn3c2)cnn1[C@H]1CC[C@](C)(O)CC1 [Compound 22]	2.7

Dear colleague, could you send me IC50 for each of the items below? Thanks.
1. C[C@@H](Oc1cc(-c2cnn(C)c2N)cn2ncc(C#N)c12)c1ccccn1 [Compound 35]
2. CC(=O)N[C@H]1CC[C@H](n2ncc(-c3cc(O[C@H](C)c4ccc(F)cn4)c4c(C#N)cnn4c3)c2C)CC1 [Compound 36]
3. Cc1c(-c2cc(O[C@H](C)c3ncccc3F)c3c(C#N)cnn3c2)cnn1[C@H]1CCCNC1 [Compound 10]
4. Cc1c(-c2cc(O[C@H](C)c3ccc(F)cn3)c3c(C#N)cnn3c2)cnn1[C@H]1CCC[C@@H](O)C1 [Compound 71]

5
4
5
4.5

Dear colleague, could you send me IC50 for each of the items below? Thanks.
1. Cc1c(-c2cc(O[C@H](C)c3ccc(F)cn3)c3c(C#N)cnn3c2)cnn1[C@H]1CCCN(C(=O)[C@H](C)O)C1 [Compound 18]
2. Cc1c(-c2cc(O[C@H](C)c3ccc(F)cn3)c3c(C#N)cnn3c2)cnn1C1CCN(C(=O)CO)CC1 [Compound 42]
3. Cc1nn(C2CCN(C)CC2)c(C)c1-c1cc(O[C@H](C)c2ccccn2)c2c(C#N)cnn2c1 [Compound 6]

1: 4; 2: 4; 3: 15

* * *

Target: FGFR2 (Homo sapiens)
Construct: biochemical assays using purified intracellular domains of the respective isoforms; purchased Carna Bioscience 08-134
Sequence (P21802 399-821 limits assumed): as the sequence (P21802 399-821 V564F limits assumed) above, with F166V counted along it
Assay: FGFR wild type enzyme assay (HTRF KinEASE-TK)
Type: biochemical
Conditions: compound table after the examples; ATP 2 uM; read-out: Enz FGFR2
Task for the reader: assign each of the following molecules its reported IC50.
Answers are plain numbers, in pM.

Example molecules with recorded IC50:
molecule	study-system	value-units	IC50
Cc1c(-c2cc(O[C@H](C)c3ccc(F)cn3)c3c(C#N)cnn3c2)cnn1[C@H]1CCC[C@@H](O)C1	FGFR2 (Homo sapiens)	pM	1000
CN=S1(=O)CCC(n2cc(-c3cc(O[C@H](C)c4ccc(F)cn4)c4c(C#N)cnn4c3)cn2)CC1 (stereo partly shown)	FGFR2 (Homo sapiens)	pM	150

Dear colleague, could you send me IC50 for each of the items below? Thanks.
1. C[C@@H](Oc1cc(-c2cnn(C3CCNCC3)c2)cn2ncc(C#N)c12)c1ncccc1F
2. C[C@@H]1CN(c2ccc(-c3cc(O[C@H](C)c4ccc(F)cn4)c4c(C#N)cnn4c3)cn2)C[C@H](C)O1
3. Cc1c(-c2cc(O[C@H](C)c3ccc(F)cn3)c3c(C#N)cnn3c2)cnn1[C@H]1CCCN(C(=O)[C@H](C)O)C1

1: 200; 2: 500; 3: 600

Dear colleague, could you send me IC50 for each of the items below? Thanks.
1. Cc1c(-c2cc(O[C@H](C)c3ccc(F)cn3)c3c(C#N)cnn3c2)cnn1[C@H]1CCCN(C[C@H](O)CO)C1
2. Cc1c(-c2cc(O[C@H](C)c3ccc(Cl)cn3)c3c(C#N)cnn3c2)cnn1[C@H]1CCCNC1
3. CC(=O)N1CCC[C@H](n2ncc(-c3cc(O[C@H](C)c4ccc(F)cn4)c4c(C#N)cnn4c3)c2C)C1
4. Cc1c(-c2cc(O[C@H](C)c3ccc(F)cn3)c3c(C#N)cnn3c2)cnn1[C@@H]1CCCN(C(=O)[C@H](C)O)C1
5. Cc1c(-c2cc(O[C@@H](c3ccc(F)cn3)C(F)(F)F)c3c(C#N)cnn3c2)cnn1[C@H]1CC[C@H](O)CC1
6. Cc1c(-c2cc(O[C@H](C)c3ccc(F)cn3)c3c(C#N)cnn3c2)cnn1C1CCN(C(=O)[C@@H](N)C(C)C)CC1
7. Cc1c(-c2cc(O[C@H](C)c3ccc(F)cn3)c3c(C#N)cnn3c2)cnn1[C@H]1CC[C@@H](O)CC1

1: 500; 2: 12500; 3: 600; 4: 2600; 5: 400; 6: 500; 7: 300

Dear colleague, could you send me IC50 for each of the items below? Thanks.
1. Cc1c(-c2cc(O[C@H](C)c3ccc(F)cn3)c3c(C#N)cnn3c2)cnn1[C@H]1CCCC[C@@H]1O
2. Cc1c(-c2cc(O[C@H](C)c3ccc(F)cn3)c3c(C#N)cnn3c2)cnn1[C@@H]1CCC[C@@H](O)C1

1. 300
2. 1000

Dear colleague, could you send me IC50 for each of the items below? Thanks.
1. Cc1c(-c2cc(O[C@H](C)c3ncccc3F)c3c(C#N)cnn3c2)cnn1C1CCNCC1
2. Cc1c(-c2cc(O[C@H](C)c3ccccn3)c3c(C#N)cnn3c2)cnn1C1CCN(C)CC1
3. C[C@@H](Oc1cc(-c2cnn([C@H]3CC[C@H](O)CC3)c2)cn2ncc(C#N)c12)c1ccc(F)cn1
4. Cc1c(-c2cc(O[C@H](C)c3ccc(F)cn3)c3c(C#N)cnn3c2)cnn1C1CCN(C(=O)C2(N)CCC2)CC1
5. C[C@@H](Oc1cc(-c2cnn([C@H]3CC[C@H](O)CC3)c2N)cn2ncc(C#N)c12)c1ccc(F)cn1
6. C[C@H](O)C(=O)N1CCC(n2cc(-c3cc(O[C@H](C)c4ccc(F)cn4)c4c(C#N)cnn4c3)cn2)CC1
7. Cc1c(-c2cc(O[C@@H](C)c3ccc(F)cn3)c3c(C#N)cnn3c2)cnn1[C@H]1CC[C@H](O)CC1
8. Cc1c(-c2cc(O[C@H](C)c3cccnc3)c3c(C#N)cnn3c2)cnn1[C@H]1CC[C@H](O)CC1

[300, 300, 200, 1000, 400, 150, 6500, 400]

* * *

Task for the reader: assign each of the following compounds its reported IC50.
Target: FGFR2 V564F (Homo sapiens, UniProt P21802, V564F)
Construct: biochemical assays using purified intracellular domains of the respective isoforms
Test: FGFR mutant enzyme assay (HTRF KinEASE-TK)
Settings: ATP 1.5 uM
Report field: quantity (unit follows the number).

Example compounds with recorded IC50:
compound	property-measured	observed-measurement
C[C@@H](Oc1cc(-c2ccc(N3CCC(O)CC3)nc2)cn2ncc(C#N)c12)c1ccc(F)cn1 [Compound 56]	IC50	0.6 nM
C[C@@H](Oc1cc(-c2nnn(C)c2N)cn2ncc(C#N)c12)c1ccc(F)cn1 [Compound 34]	IC50	10 nM
Cc1c(-c2cc(O[C@H](C)c3ccc(F)cn3)c3c(C#N)cnn3c2)cnn1[C@H]1CC[C@H](O)CC1 [Compound 1]	IC50	1 nM
Cc1c(-c2cc(O[C@H](C)c3ccc(F)cn3)c3c(C#N)cnn3c2)cnn1[C@H]1CC[C@@](C)(O)CC1 [Compound 23]	IC50	1 nM
C[C@@H](Oc1cc(-c2cnn(C)c2N)cn2ncc(C#N)c12)c1ccc(F)cn1 [Compound 30]	IC50	3.7 nM
C[C@@H](Oc1cc(-c2ccc(N3CC[C@@H](O)[C@@H](O)C3)nc2)cn2ncc(C#N)c12)c1ccc(F)cn1 [Compound 25]	IC50	0.7 nM
C[C@@H](Oc1cc(-c2ccc(N3CCN(C)[C@@H](CO)C3)nc2)cn2ncc(C#N)c12)c1ccc(F)cn1 [Compound 24]	IC50	1 nM
Cc1nn([C@H]2CCCNC2)c(C)c1-c1cc(O[C@H](C)c2ncccc2F)c2c(C#N)cnn2c1 [Compound 11]	IC50	4.4 nM
C[C@@H](Oc1cc(-c2cnn(C)c2N)cn2ncc(C#N)c12)c1ccccn1 [Compound 35]	IC50	2 nM
Cc1c(-c2cc(OC(C)c3ccc(F)cn3)c3c(C#N)cnn3c2)cnn1[C@H]1CC[C@@H](O)CC1 (some centres unmarked) [Compound 52]	IC50	2.4 nM

Dear colleague, could you send me IC50 for each of the items below? Thanks.
1. Cc1c(-c2cc(O[C@H](c3ccc(F)cn3)C(F)(F)F)c3c(C#N)cnn3c2)cnn1[C@H]1CC[C@H](O)CC1 [Compound 70]
2. Cc1c(-c2cc(O[C@H](C)c3ccc(F)cn3)c3c(C#N)cnn3c2)cnn1[C@@H]1CCCC[C@H]1O [Compound 62]
3. Cc1c(-c2cc(O[C@@H](CO)c3ccc(F)cn3)c3c(C#N)cnn3c2)cnn1[C@H]1CC[C@H](O)CC1 [Compound 66]
4. CC(=O)N1CCC[C@H](n2ncc(-c3cc(O[C@H](C)c4ccc(F)cn4)c4c(C#N)cnn4c3)c2C)C1 [Compound 13]
5. Cc1c(-c2cc(O[C@H](C)c3ccc(F)cn3)c3c(C#N)cnn3c2)cnn1C[C@H](O)CO [Compound 27]

1: 219 nM; 2: 21.5 nM; 3: 139 nM; 4: 1.6 nM; 5: 11 nM

Dear colleague, could you send me IC50 for each of the items below? Thanks.
1. Cc1c(-c2cc(O[C@H](C)c3ccc(F)cn3)c3c(C#N)cnn3c2)cnn1[C@H]1CCCN(C(CO)CO)C1 [Compound 38]
2. Cc1c(-c2cc(O[C@H](C)c3ncccc3F)c3c(C#N)cnn3c2)cnn1C1CCNCC1 [Compound 9]
3. C[C@@H]1CN(c2ccc(-c3cc(O[C@H](C)c4ccc(F)cn4)c4c(C#N)cnn4c3)cn2)C[C@H](C)O1 [Compound 16]
4. Cc1c(-c2cc(O[C@H](C)c3ccc(F)cn3)c3c(C#N)cnn3c2)cnn1[C@@H]1CCC[C@H](O)C1 [Compound 72]
5. Cc1c(-c2cc(O[C@H](C)c3ccc(F)cn3)c3c(C#N)cnn3c2)cnn1[C@H]1CCCC[C@@H]1O [Compound 61]
6. Cc1c(-c2cc(O[C@H](C)c3ccc(F)cn3)c3c(C#N)cnn3c2)cnn1[C@H]1CCC[C@H](O)C1 [Compound 67]

1: 1 nM; 2: 1 nM; 3: 0.8 nM; 4: 1 nM; 5: 1 nM; 6: 1 nM

Dear colleague, could you send me IC50 for each of the items below? Thanks.
1. Cc1c(-c2cc(O[C@H](C)c3ccc(F)cn3)c3c(C#N)cnn3c2)cnn1[C@@H]1CCC[C@@H](O)C1 [Compound 68]
2. Cc1nn(C2CCNCC2)c(C)c1-c1cc(O[C@H](C)c2ccccn2)c2c(C#N)cnn2c1 [Compound 4]
3. Cc1c(-c2cc(O[C@H](C)c3ncccc3F)c3c(C#N)cnn3c2)cnn1[C@H]1CCCNC1 [Compound 10]
4. Cc1nn(C2CCN(C)CC2)c(C)c1-c1cc(O[C@H](C)c2ccccn2)c2c(C#N)cnn2c1 [Compound 6]

3 nM
3 nM
0.8 nM
4 nM

Dear colleague, could you send me IC50 for each of the items below? Thanks.
1. Cc1c(-c2cc(O[C@H](C)c3ccc(F)cn3)c3c(C#N)cnn3c2)cnn1[C@@H]1CCCN(C(=O)[C@H](C)O)C1 [Compound 49]
2. Cc1c(-c2cc(O[C@H](C)c3ccc(F)cn3)c3c(C#N)cnn3c2)cnn1[C@H]1CCCN(C(=O)C2(O)CCC2)C1 [Compound 40]
3. C[C@@H](Oc1cc(-c2cnn(C3CCNCC3)c2)cn2ncc(C#N)c12)c1ncccc1F [Compound 8]
4. CC(=O)N[C@H]1CC[C@H](n2ncc(-c3cc(O[C@H](C)c4ccc(F)cn4)c4c(C#N)cnn4c3)c2C)CC1 [Compound 36]

1. 8 nM
2. 2 nM
3. 0.08 nM
4. 1.5 nM

FYI, the data here is from patent US12351581B2.
